For each of the compounds below, state its Dye Concentration in Acetone at RT.
assay: Dye concentration in saturated acetone solution at room temperature; format: physicochemical; conditions: 72 hours at RT, 0.45 micron PTFE filtered, absorbance at 535 nm
The response must be a number in mg/mL with no trailing unit.

Task: What does the data say about its Dye Concentration in Acetone at RT? Entry: CC(C)CC(CC(C)C)Oc1cc2c3ccccc3c(=O)c3ccc4c5ccccc5sc1c4c32 [Example 3]
Result: 2.98

Task: Request the reported Dye Concentration in Acetone at RT associated with CCCCC(CC)COc1cc2c3ccccc3c(=O)c3ccc4c5ccccc5sc1c4c32 (stereo not shown) [Example 2]
Result: 0.96

Task: What does the record list as Dye Concentration in Acetone at RT for COc1cc2c3ccccc3c(=O)c3ccc4c5ccccc5sc1c4c32 [reference compound] ?
Result: 0.06

Task: Form field: reported Dye Concentration in Acetone at RT of CCCCCCCCOc1cc2c3ccccc3c(=O)c3ccc4c5ccccc5sc1c4c32 [Example 1]
Result: 0.19

Origin of values: patent US6841236B2
